Tested on: Staphylococcus epidermidis 1601-1
Test: MIC and FIC, Nutrient agar (Tests 2, 3)
Assay type: cell-based
Settings: 16011, S. epidermidis 1601-1, 20 h
observed.property: MIC (µg/mL)
Express your answer in µg/mL, writing the number without its unit.

What value of MIC has been recorded for this entry: CC1(C)S[C@@H]2[C@H](NC(=O)[C@H](N)c3ccccc3)C(=O)N2[C@H]1C(=O)O [B (Table 2), ampicillin]
0.2

What value of MIC has been recorded for this entry: CC1(C)S[C@@H]2[C@H](NC(=O)C(C(=O)O)c3ccsc3)C(=O)N2[C@H]1C(=O)O (stereo partly shown) [B (Table 4), ticarcillin]
3.13

What value of MIC has been recorded for this entry: Cc1nnc(SCC2=C(C(=O)O)N3C(=O)[C@@H](NC(=O)Cn4cnnn4)[C@H]3SC2)s1 [B (Table 3), cefazolin]
0.39

###

Exercise: for every item that follows, state its recorded MIC.
Tested on: Serratia marcescens 1421-4
Assay: MIC and FIC, Nutrient agar (Tests 2, 3)
Assay type: cell-based
Conditions: Serratia marcescens, 14214, 20 h
Express your answer in µg/mL, writing the number without its unit.

What value of MIC has been recorded for this entry: CC1(C)S[C@@H]2[C@H](NC(=O)[C@H](N)c3ccccc3)C(=O)N2[C@H]1C(=O)O
25

What value of MIC has been recorded for this entry: CC1(C)S[C@@H]2[C@H](NC(=O)C(C(=O)O)c3ccsc3)C(=O)N2[C@H]1C(=O)O (stereo partly shown)
25

What value of MIC has been recorded for this entry: O=CN(O)CCCP(=O)(O)O
50

What value of MIC has been recorded for this entry: N[C@H](CCOc1ccc(/C(=N/O)C(=O)N[C@H]2CN([C@@H](C(=O)O)c3ccc(O)cc3)C2=O)cc1)C(=O)O
25
